Data credit: paper PMC9453454

Test system: HCT116 cells
PROTOCOL_DETAILS: MTT in vitro cytotoxicity, HCT116
Assay type: cell-based, human
CONDITION_DESCRIPTION: HCT-116; HCT116 human colon cancer cells, MTT, 48 h; read-out: IC50
REPORTED_PROPERTY: IC50 (µM)
Give the value in µM but do not write µM after it.

// solved cases for IC50 follow
| COMPOUND | REPORTED_PROPERTY | NUMERIC_VALUE |
| --- | --- | --- |
| CC[C@]1(O)C(=O)OCc2c1cc1n(c2=O)Cc2cc3cc(OC(=O)/C=C/C(=O)N4CCN(c5ccc(Nc6ncc7c(C)c(C(C)=O)c(=O)n(C8CCCC8)c7n6)nc5)CC4)ccc3nc2-1 [HP-3] | IC50 | 23.2 |
| CC[C@]1(O)C(=O)OCc2c1cc1n(c2=O)Cc2cc3cc(OC(=O)CCCC(=O)N4CCN(c5ccc(Nc6ncc7c(C)c(C(C)=O)c(=O)n(C8CCCC8)c7n6)nc5)CC4)ccc3nc2-1 [HP-1] | IC50 | 17.1 |

[Q] Kindly state the measured IC50 obtained for CC[C@]1(O)C(=O)OCc2c1cc1n(c2=O)Cc2cc3cc(OC(=O)CCC(=O)N4CCN(c5ccc(Nc6ncc7c(C)c(C(C)=O)c(=O)n(C8CCCC8)c7n6)nc5)CC4)ccc3nc2-1 [HP-2] with HCT116 cells.
[A] 19.6

[Q] Kindly state the measured IC50 obtained for CC(=O)c1c(C)c2cnc(Nc3ccc(N4CCNCC4)cn3)nc2n(C2CCCC2)c1=O [Palbociclib] with HCT116 cells.
[A] 31.6

* * *

System: MCF10-A cells
PROTOCOL_DETAILS: MTT in vitro cytotoxicity, MCF10-A normal breast epithelial cells
Assay type: cell-based, human
CONDITION_DESCRIPTION: MCF-10A; MCF10-A human normal breast epithelial cells, MTT, 48 h; read-out: IC50
REPORTED_PROPERTY: IC50 (µM)
Give the value in µM but do not write µM after it.

// solved cases for IC50 follow
| INPUT_SMILES | UNITS_SYMBOL | IC50 |
| --- | --- | --- |
| CC(=O)c1c(C)c2cnc(Nc3ccc(N4CCNCC4)cn3)nc2n(C2CCCC2)c1=O | µM | 39.7 |
| CC[C@]1(O)C(=O)OCc2c1cc1n(c2=O)Cc2cc3cc(OC(=O)CCC(=O)N4CCN(c5ccc(Nc6ncc7c(C)c(C(C)=O)c(=O)n(C8CCCC8)c7n6)nc5)CC4)ccc3nc2-1 | µM | 31.4 |
| CC[C@]1(O)C(=O)OCc2c1cc1n(c2=O)Cc2cc3cc(OC(=O)/C=C/C(=O)N4CCN(c5ccc(Nc6ncc7c(C)c(C(C)=O)c(=O)n(C8CCCC8)c7n6)nc5)CC4)ccc3nc2-1 | µM | 37.3 |

As a next step, examine the compound that follows.
[Q] # lookup: IC50 of CC[C@]1(O)C(=O)OCc2c1cc1n(c2=O)Cc2cc3cc(OC(=O)CCCC(=O)N4CCN(c5ccc(Nc6ncc7c(C)c(C(C)=O)c(=O)n(C8CCCC8)c7n6)nc5)CC4)ccc3nc2-1
[A] 32.4

* * *

Test system: NCI-H1299 cells
PROTOCOL_DETAILS: MTT in vitro cytotoxicity, NCI-H1299
Format: cell-based, human
CONDITION_DESCRIPTION: NCI-H1299 human lung cancer cells, MTT, 48 h; read-out: IC50
REPORTED_PROPERTY: IC50 (µM)
Give the value in µM but do not write µM after it.

// solved cases for IC50 follow
| INPUT_SMILES | REPORTED_PROPERTY | UNITS_SYMBOL | NUMERIC_VALUE |
| --- | --- | --- | --- |
| CC[C@]1(O)C(=O)OCc2c1cc1n(c2=O)Cc2cc3cc(OC(=O)/C=C/C(=O)N4CCN(c5ccc(Nc6ncc7c(C)c(C(C)=O)c(=O)n(C8CCCC8)c7n6)nc5)CC4)ccc3nc2-1 | IC50 | µM | 4.35 |
| CC[C@]1(O)C(=O)OCc2c1cc1n(c2=O)Cc2cc3cc(OC(=O)CCCC(=O)N4CCN(c5ccc(Nc6ncc7c(C)c(C(C)=O)c(=O)n(C8CCCC8)c7n6)nc5)CC4)ccc3nc2-1 | IC50 | µM | 2.29 |

[Q] # lookup: IC50 of CC(=O)c1c(C)c2cnc(Nc3ccc(N4CCNCC4)cn3)nc2n(C2CCCC2)c1=O
[A] 5.09

[Q] # lookup: IC50 of CC[C@]1(O)C(=O)OCc2c1cc1n(c2=O)Cc2cc3cc(OC(=O)CCC(=O)N4CCN(c5ccc(Nc6ncc7c(C)c(C(C)=O)c(=O)n(C8CCCC8)c7n6)nc5)CC4)ccc3nc2-1
[A] 3.35

* * *

Tested on: NCI-H1299 cells
PROTOCOL_DETAILS: MTT in vitro cytotoxicity, NCI-H1299
Format: cell-based, human
CONDITION_DESCRIPTION: Homo sapiens, NCI-H1299, 48 h
REPORTED_PROPERTY: pIC50
Please keep in mind that pIC50 is minus log10 of the molar concentration; only the number is needed.

[Q] # lookup: pIC50 of CC[C@@]1(O)C(=O)OCc2c1cc1n(c2=O)Cc2cc3cc(O)ccc3nc2-1 [10-HCPT, 10-hydroxycamptothecin, reference compound]
[A] 5.47

* * *

Tested on: MCF-7 cells
PROTOCOL_DETAILS: MTT in vitro cytotoxicity, MCF-7
Assay type: cell-based, human
CONDITION_DESCRIPTION: Homo sapiens, MCF7, 48 h
REPORTED_PROPERTY: pIC50
Please keep in mind that pIC50 is minus log10 of the molar concentration; only the number is needed.

[Q] # lookup: pIC50 of CC[C@@]1(O)C(=O)OCc2c1cc1n(c2=O)Cc2cc3cc(O)ccc3nc2-1 [10-HCPT, 10-hydroxycamptothecin, reference compound]
[A] 4.88

* * *

System: HepG2 cells
PROTOCOL_DETAILS: MTT in vitro cytotoxicity, HepG2
Type: cell-based, human
CONDITION_DESCRIPTION: HepG2 human liver cancer cells, MTT, 48 h; read-out: IC50
REPORTED_PROPERTY: IC50 (µM)
Give the value in µM but do not write µM after it.

// solved cases for IC50 follow
| INPUT_SMILES | IC50 (µM) |
| --- | --- |
| CC(=O)c1c(C)c2cnc(Nc3ccc(N4CCNCC4)cn3)nc2n(C2CCCC2)c1=O | 7.55 |
| CC[C@]1(O)C(=O)OCc2c1cc1n(c2=O)Cc2cc3cc(OC(=O)CCCC(=O)N4CCN(c5ccc(Nc6ncc7c(C)c(C(C)=O)c(=O)n(C8CCCC8)c7n6)nc5)CC4)ccc3nc2-1 | 2.57 |
| CC[C@]1(O)C(=O)OCc2c1cc1n(c2=O)Cc2cc3cc(OC(=O)CCC(=O)N4CCN(c5ccc(Nc6ncc7c(C)c(C(C)=O)c(=O)n(C8CCCC8)c7n6)nc5)CC4)ccc3nc2-1 | 8.11 |

[Q] # lookup: IC50 of CC[C@]1(O)C(=O)OCc2c1cc1n(c2=O)Cc2cc3cc(OC(=O)/C=C/C(=O)N4CCN(c5ccc(Nc6ncc7c(C)c(C(C)=O)c(=O)n(C8CCCC8)c7n6)nc5)CC4)ccc3nc2-1
[A] 6.84
